These entries and their values trace back to ChEMBL document CHEMBL4138118.

measurementProtocol: Cytotoxicity against human Huh7-J17 cells assessed as decrease in cell viability after 72 hrs by MTT assay
Assay type: cell-based
measurementLabel: CC50 at 72 h (µM)
Give just the numeric value; µM need not be written.

Worked cases, answers included:
CC(=O)OC[C@H]1O[C@@H](Sc2ccc(NC(=O)[C@H]3O[C@@H](n4ccc(=O)[nH]c4=O)[C@H](O[Si](C)(C)C(C)(C)C)[C@@H]3O[Si](C)(C)C(C)(C)C)cn2)[C@H](OC(C)=O)[C@@H](OC(C)=O)[C@@H]1OC(C)=O
185
CC(C)OC(=O)[C@H](C)N[P@](=O)(OC[C@H]1O[C@@H](n2ccc(=O)[nH]c2=O)[C@](C)(F)[C@@H]1O)Oc1ccccc1
23.5

With those in mind, consider the next compound.
Tell me CC50 at 72 h reported for "CC(=O)OC[C@H]1O[C@@H](Sc2ccc(NC(=O)[C@H]3O[C@@H](n4ccc(=O)[nH]c4=O)[C@H](O[Si](C)(C)C(C)(C)C)[C@@H]3O[Si](C)(C)C(C)(C)C)cn2)[C@H](OC(C)=O)[C@@H](OC(C)=O)[C@H]1OC(C)=O"
245

###

Listed here are compounds together with their documented CC50 at 72 h.
measurementProtocol: Cytotoxicity against human Huh7.5 cells assessed as reduction in cell viability after 72 hrs by MTT method
Format: cell-based
Give just the numeric value; µM need not be written.

CC(=O)OC[C@H]1O[C@@H](Sc2ccc(NC(=O)CCC(=O)OC[C@H]3O[C@@H](n4ccc(=O)n(C(=O)c5ccccc5)c4=O)[C@H](O[Si](C)(C)C(C)(C)C)[C@@H]3O[Si](C)(C)C(C)(C)C)cn2)[C@H](OC(C)=O)[C@@H](OC(C)=O)[C@@H]1OC(C)=O
71

Tell me CC50 at 72 h reported for "CC(=O)OC[C@H]1O[C@@H](Sc2ccc(NC(=O)[C@H]3O[C@@H](n4ccc(=O)[nH]c4=O)[C@H](O[Si](C)(C)C(C)(C)C)[C@@H]3O[Si](C)(C)C(C)(C)C)cn2)[C@H](OC(C)=O)[C@@H](OC(C)=O)[C@@H]1OC(C)=O"
135

###

Listed here are molecules together with their documented selectivity ratio.
measurementProtocol: Selectivity index, ratio of CC50 for Huh7.5 cells to IC50 for HCV Jc1/JFH
Type: toxicity
conditions: human, read-out: Ratio CC50/IC50

CC(=O)OC[C@H]1O[C@@H](Sc2ccc(NC(=O)[C@H]3O[C@@H](n4ccc(=O)[nH]c4=O)[C@@H]4OC(C)(C)O[C@@H]43)cn2)[C@H](OC(C)=O)[C@@H](OC(C)=O)[C@@H]1OC(C)=O
1.1

With those in mind, consider the next molecule.
Tell me selectivity ratio reported for "CC(C)(C)[Si](C)(C)OC[C@H]1O[C@@H](Sc2ccc(NC(=O)[C@H]3O[C@@H](n4ccc(=O)[nH]c4=O)[C@H](O[Si](C)(C)C(C)(C)C)[C@@H]3O[Si](C)(C)C(C)(C)C)cn2)[C@H](OC(=O)c2ccccc2)[C@@H](OC(=O)c2ccccc2)[C@@H]1OC(=O)c1ccccc1"
> 1.1

###

measurementProtocol: Selectivity index, ratio of CC50 for Huh7.5 cells to IC50 for HCV Jc1/JFH
Assay type: toxicity
conditions: human, read-out: Ratio CC50/IC50
measurementLabel: selectivity ratio
Give your answer as a number; write no unit.

Worked cases, answers included:
CC(=O)OC[C@H]1O[C@@H](Sc2ccc(NC(=O)[C@H]3O[C@@H](n4ccc(=O)[nH]c4=O)[C@H](O[Si](C)(C)C(C)(C)C)[C@@H]3O[Si](C)(C)C(C)(C)C)cn2)[C@H](OC(C)=O)[C@@H](OC(C)=O)[C@@H]1OC(C)=O
19.3
CC(=O)OC[C@H]1O[C@@H](Sc2ccc(NC(=O)CCC(=O)OC[C@H]3O[C@@H](n4ccc(=O)n(C(=O)c5ccccc5)c4=O)[C@H](O[Si](C)(C)C(C)(C)C)[C@@H]3O[Si](C)(C)C(C)(C)C)cn2)[C@H](OC(C)=O)[C@@H](OC(C)=O)[C@@H]1OC(C)=O
1.6

With those in mind, consider the next compound.
Tell me selectivity ratio reported for "CC(C)OC(=O)[C@H](C)N[P@](=O)(OC[C@H]1O[C@@H](n2ccc(=O)[nH]c2=O)[C@](C)(F)[C@@H]1O)Oc1ccccc1"
119
